- Tested system: PD-L1 (programmed death-ligand 1) (Homo sapiens?)
- Method summary: filter
- Condition context: 5-(N-benzylcarboxamide)-2'-deoxyuridine (Bz-dU) at every n; Bmax 0.07; 37 C
Attribute measured: pKd
Bear in mind: pKd is minus log10 of a mol/L concentration; give just that figure.

INPUT: Please state recorded pKd (tested on PD-L1 (programmed death-ligand 1) (Homo sapiens?)) of GAGTGACCGTCTGCCTGATGAAAAGTTTTTGATTGTACCTTAGTGCACTCAACAGTGCAGCCACACCACCAGCC [PL001]
OUTPUT: 8.96

###

- Tested system: PD-L1 (programmed death-ligand 1) (Homo sapiens?)
- Method summary: inhibition
- Condition context: 5-(N-benzylcarboxamide)-2'-deoxyuridine (Bz-dU) at every n; PD-1/PD-L1 binding ELISA, repeat experiment
Attribute measured: IC50 (nM)
Kindly answer with a numeric value in nM, unit omitted.

INPUT: Given GAGTGACCGTCTGCCTGATGAAAAGTTTTTGATTGTACCTTAGTGCACTCAACAGTGCAGCCACACCACCAGCC [PL001] , state its recorded IC50.
OUTPUT: 10.5

###

- Tested system: PD-L1 (programmed death-ligand 1) (Homo sapiens?) (UniProt Q9NZQ7)
- Sequence (Q9NZQ7 19-238): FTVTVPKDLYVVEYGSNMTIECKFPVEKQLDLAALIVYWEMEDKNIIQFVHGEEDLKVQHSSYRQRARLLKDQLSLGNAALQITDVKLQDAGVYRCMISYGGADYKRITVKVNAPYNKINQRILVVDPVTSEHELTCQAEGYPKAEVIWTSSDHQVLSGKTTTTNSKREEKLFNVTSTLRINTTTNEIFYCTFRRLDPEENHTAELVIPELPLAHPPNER
- Method summary: inhibition
- Condition context: Bz-dU at every n; PD-1/PD-L1 binding ELISA
Attribute measured: pIC50
In simple prose, pIC50 is minus the logarithm base ten of a concentration in moles per litre.

INPUT: For the sequence AAGTTTTTGATTGTACCTTAGTGC [PL009] , what pIC50 is on record?
OUTPUT: 8.34

INPUT: Requested read-out: pIC50. Entry: ATGAAAAGTTTTTGATTGTACCTTAGTGCACTCAACAGTG [PL019]
OUTPUT: 7.82

INPUT: Form field: reported pIC50 of ATGAAAAGTTTTTGATTGTACCTTAGTGC [PL004]
OUTPUT: 8.15

INPUT: What value of pIC50 has been recorded for this entry: TGTATGCCGCACGATCGCCCTATTTTGCGAGTTTACTCA [PL006]
OUTPUT: 8.02

###

- Tested system: PD-L1 (programmed death-ligand 1) (Homo sapiens?)
- Method summary: inhibition
- Condition context: 5-(N-benzylcarboxamide)-2'-deoxyuridine (Bz-dU) at every n; PD-1/PD-L1 binding ELISA
Attribute measured: pIC50
Answer as the number alone; pIC50 is minus log10 of concentration in mol/L.

INPUT: Param item = GAGTGACCGTCTGCCTGATGAAAAGTTTTTGATTGTACCTTAGTGCACTCAACAGTGCAGCCACACCACCAGCC [PL001] ; retrieve measured pIC50.
OUTPUT: 8.22

###

- Tested system: PD-L1 (programmed death-ligand 1) (Homo sapiens?)
- Method summary: filter
- Condition context: Bz-dU at every n; Bmax 0.06; 37 C
The reader will find reported Kd values listed item by item below.
The figure you give is taken to be in nM; do not add the unit.

Sequence text	Unit abbreviation	Kd
GAGTGACCGTCTGCCTGTTAAGCGGCTAAGTTTTTGATTGTACCTTAGTGCCCTTACCAGCCACACCACCAGCC [PL010]	nM	0.93

Next up:
INPUT: Any idea what Kd was measured for GAGTGACCGTCTGCCTGTGTATGCCGCACGATCGCCCTATTTTGCGAGTTTAACTGACAGCCACACCACCAGCC [PL028] ?
OUTPUT: 1.36

###

- Tested system: PD-L1 (programmed death-ligand 1) (Homo sapiens?)
- Method summary: inhibition
- Condition context: Bz-dU at every n; PD-1/PD-L1 binding ELISA
pIC50 values for the sequences below.
# pIC50: negative log10 of molar concentration; output just the value

Illustrative cases are given below, each with its answer.
Sequence text	pIC50
GCCTGTGTATGCCGCACGATCGCCCTATTTTGCGAGTTTACTCACAGCC [PL005]	7.90
GCCTGATGAAAAGTTTTTGATTGTACCTTAGTGCACTCAACAGTGC [PL017]	8.40
GAGTGACCGTCTGCCTGTGTATGCCGCACGATCGCCCTATTTTGCGAGTTTACTCACAGCCACACCACCAGCC [PL002]	7.50
GCCTGATGAAAAGTTTTTGATTGTACCTTAGTGCACTCAACAGTGCAGCC [PL016]	8.48

Switching to the query record.
INPUT: Item GCCTGATGAAAAGTTTTTGATTGTACCTTAGTGC [PL003] has what recorded pIC50?
OUTPUT: 8.20

Data provenance is patent US20230055235.
